Target: Rev-RRE complexes (recombinant Rev protein, synthetic 32P-labelled RRE RNA) (Human immunodeficiency virus type 1 group M subtype B, UniProt P04618)
Sequence (P04618 whole entry, looked up, one chain of several): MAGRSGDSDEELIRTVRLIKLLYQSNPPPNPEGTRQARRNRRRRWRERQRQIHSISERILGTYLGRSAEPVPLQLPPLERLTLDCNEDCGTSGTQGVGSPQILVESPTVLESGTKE
Assay: Rev-RRE binding inhibition, nitrocellulose filter binding assay with scintillation counting
Parameters: species or system Human Immunodeficiency Virus (HIV)
Conditions: array assayed at 6 ug/mL, non-specific competitor RNA, read-out: % inh
value-type: inhibition at 6 µg/mL (%)
Express it in %; write the number only.

Reference set (4 entries):
CCC(CC)NC(=O)/C(=C/c1cccc(C(F)(F)F)c1)NC(=O)c1ccc2ccccc2c1    93
COc1cccc(/C=C(\NC(=O)c2ccc3ccccc3c2)C(=O)NCCc2ccccc2)c1    91
O=C(NC(c1ccccc1)c1ccccc1)/C(=C/c1cccc(Oc2ccccc2)c1)NC(=O)c1ccc(C(F)(F)F)cc1    94
O=C(NCCc1ccccc1)/C(=C/c1ccc(-c2ccccc2)cc1)NC(=O)c1ccc(Cl)cc1Cl    91

Here is another compound to look at.
Challenge: Quick one: inhibition at 6 µg/mL for "O=C(Nc1cccnc1)/C(=C/c1ccccc1F)NC(=O)c1ccccc1" ?
Response given: 91
